B1: INTS4 (parent)
chain: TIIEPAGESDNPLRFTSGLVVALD

Variants of: B1
Experiment: protein stability index of a GFP-peptide fusion (GPS, HEK-293T) (PSI 1-6); higher = more stable;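 note: lentivirally expressed fusions sorted by FACS into six bins by GFP to DsRed ratio, PSI derived from sequencing read proportions per bin multiplied by bin number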
Conditions: c terminus: a fixed tail appended
property: protein stability index
API note: the answer field is a bare number with no unit suffix.

G18S
2.83
R14G
3.25
R14E
4.21

Next item in the queue.
Ask: Which protein stability index is reported for this variant? "T1I"
Result: 2.2

Source: the supplement of paper PMC10567573
